# Measurement Target: MAGI2_5, Q86UL8
# Sequence (Q86UL8 915-1017): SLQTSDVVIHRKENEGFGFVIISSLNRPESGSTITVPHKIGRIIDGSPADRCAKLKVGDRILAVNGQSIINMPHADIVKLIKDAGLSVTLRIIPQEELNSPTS
# Procedure Details: holdup assay
# Set-up: key: below the threshold = too weak to quantify, mostly under pKd 3.1 to 4
# Condition Info: plain residues with an end cap or a label only (N-terminal biotin on a linker: ahx)
Each item that follows carries a reported pKd.
Respond with the number and no other words.

# Binder, Measured Endpoint, Quantitative Result
data = [
    ("LSDPSVSTVV [GRIN1, Q05586;Q05586-2]", "pKd", 4.36),
]

Shift focus to the following entry.
response.value for TVICWPGSLV [LNX2, Q8N448] (field: pKd) = 4.35
